Source of measurements: patent US20250223330A1

tested_on: T1, CD25-Fc (UniProt P01589 22-213, limits assumed)
T1 construct: Bought reagent; The same stock (100 ug/mL aliquots) was used as CD25-Fc in the ELISA and as IL2Ra-Fc on ProA tips in the Octet assay; also called IL2Ra-Fc; CD25 (IL2Ra); not shown: Fc part of the bought fusion
T1 sequence (looked up): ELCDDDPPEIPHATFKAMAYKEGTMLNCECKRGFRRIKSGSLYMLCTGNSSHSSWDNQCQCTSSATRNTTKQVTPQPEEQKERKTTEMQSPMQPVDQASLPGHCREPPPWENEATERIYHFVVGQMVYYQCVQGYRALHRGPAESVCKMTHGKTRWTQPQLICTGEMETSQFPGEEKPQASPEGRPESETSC
experiment_notes: ELISA, STII-tagged cytokine captured on Strep-Tactin plate, CD25-Fc detected (FIG. 5A)
recorded_metric: binding result

// worked examples, binding result included
binder | reported_value
SEQ ID NO 28 (designed binder, ELISA captured STII-tagged protein from supernatant; also called Designed Cytokine No. 28) APTSSSTKKTQLQLEHLLLDLQMILNGAEVDPKIKEFLNRWITFCQSVIKANKDTREELKHLQALEERLKPLEEVLNRAQSKNFHLRPRDLISNINVIVLELKGS | no binding
SEQ ID NO 34 (designed binder, ELISA captured STII-tagged protein from supernatant; also called Designed Cytokine No. 34) APTSSSTKKTQLQLEHLLLDLQMILNGINNYKNPKLTEIDPKLVEFLNRWITFCQSAIKSGSNTAKELQALEEELKPLEEVLNLAQSKNFHLRPRDLISNINVIVLELAGS | no binding
SEQ ID NO 30 (designed binder, ELISA captured STII-tagged protein from supernatant; also called Designed Cytokine No. 30) APTSSSTKKTQLQLEHLLLDLQMILNALKKLNINSPMQEFLNRWITFCESNTEDALKHLQALEERLKPLEEVLNRAQSKNFHLRPRDLISNINVIVLELKGS | no binding
SEQ ID NO 24 (designed binder, ELISA captured STII-tagged protein from supernatant; also called Designed Cytokine No. 24) APTSSSTKKTQLQLEHLELDLQMILNLAEVDPTMKEFLNRWITEAQSSNATLKSLQALEEELKPLEEVLNLAQSKNFHLRPRDLISNINVIVLELKGS | no binding
SEQ ID NO 29 (designed binder, ELISA captured STII-tagged protein from supernatant; also called Designed Cytokine No. 29) APTSSSTKKTQLQLEHLLLDLQMILNALNKLNINDHIVEFLNRWITFCQSATSDPDLLKHLQALEERLKPLEEVLNRAQSKNFHLRPRDLISNINVIVLELKGS | no binding

Entry SEQ ID NO 27 (designed binder, ELISA captured STII-tagged protein from supernatant; also called Designed Cytokine No. 27) APTSSSTKKTQLQLEHLLLDLQMILNGINNMNADPELVEFLNRWITFCQSLIKKGSNEDLKHLQALEERLKPLEEVLNRAQSKNFHLRPRDLISNINVIVLELKGS , binding result reported as no binding
